- Method summary: binders from COS7 lysate, DM2A8 probe, primary screen, torsin A project, cell lysate, small-molecule microarray, fluorescence 635/667 (AID 1065)
- Measurement setup: higher = more signal, COS7 lysate expressing mutant human TOR1A
composite z-score of 0.1 or higher: Y. Under 0.1: N.

Previously resolved entries follow.
COC(=O)[C@@]1(Cc2ccc(OC)cc2)[C@H]2c3cc(C(=O)N(C)C)n(Cc4c(OC)[nH]cc(C)c4=O)c3C[C@H]2CN1C(=O)c1ccccc1; N
CC(C)c1ccc(NN2C(C(O)c3ccc(N(C)C)cc3)C=CC3C(=O)N(c4ccccc4)C(=O)C32)cc1 (stereo unspecified); Y
[N-]=[N+]=NCc1ccccc1C[C@]1(C(=O)NCC(O)CO)N=C(c2ccc(OCCCO)cc2)O[C@H]1c1ccccc1N=[N+]=[N-] (stereo partly specified); Y

Is the recorded value of composite z-score equal to or greater than 0.1 for this compound? O=C1N(CCS(=O)(=O)c2ccccc2)c2ccccc2C[C@@]12COC(c1ccc(OCCCO)cc1)=N2 Y

Would you say Cc1cc(C)c(C(O)C2C=CC3C(=O)N(c4ccccc4)C(=O)C3N2Nc2ccc(C#N)cc2)c(C)c1 (stereo unspecified) shows composite z-score at minimum 0.1? Y

Is composite z-score for CC(C)Cc1ccc(CN2CC[C@@H](NS(=O)(=O)c3ccccc3)C2)cc1 at or above 0.1? Y

Evaluate CCOC(=O)[C@H]1C[C@H]2O[C@@]23C[C@H]1C(=O)N1CCCC1[C@@H]3O[Si](C)(C)C(C)(C)C (stereo partly specified) : composite z-score at minimum 0.1? N

Is the recorded value of composite z-score equal to or greater than 0.1 for this compound? CC(C)N1C(=O)C[C@@](C(=O)NCc2ccccc2)(c2ccc([N+](=O)[O-])cc2)[C@H]1c1ccc(CO)cc1 Y

Hello, I need to know if COCCOC(=O)N1C(=O)[C@@]2(c3cc(C#CC4=CCCCC4)ccc31)[C@H](C(=O)NC[C@H](O)c1ccccc1)[C@H]1C(=O)O[C@H](c3ccccc3)[C@H](c3ccccc3)N1[C@@H]2c1ccc(O)cc1 has measured composite z-score not below 0.1. Thanks! Y

Would you say C=C[C@@H](COC(C)=O)N(Cc1ccc([N+](=O)[O-])cc1)S(=O)(=O)c1ccc(Br)cc1 shows composite z-score at minimum 0.1? N

Reported composite z-score at or above 0.1? [N-]=[N+]=Nc1ccccc1[C@@H]1OC(c2ccc(OCCCO)cc2)=N[C@]1(CCS(=O)(=O)c1ccccc1)C(=O)N1CCOCC1 Y

Please indicate if the recorded composite z-score for C=CCC(OC(C)=O)[C@@H]1[C@@H](N(Cc2ccc(-c3cccc(C(F)(F)F)c3)o2)C(=O)c2ccc(C)cc2)c2cc(OCCCO)ccc2N1C(=O)c1ccc(-c2ccccc2)cc1 (stereo partly specified) meets or exceeds 0.1. N

Decide: is the reported value of composite z-score for Cc1ccc(S[C@]2(C(=O)NCc3ccccc3)CC(=O)N(Cc3ccccc3)[C@@H]2c2ccc(CO)cc2)cc1 equal to or greater than 0.1? N

Exam item: decide whether the reported composite z-score for Cc1ccc(S[C@]2(C(=O)NCC(C)C)CC(=O)N(Cc3ccccc3)[C@@H]2c2ccc(CO)cc2I)cc1 is at least 0.1. N

Is composite z-score at least 0.1? Consider COC(=O)C(CC#Cc1ccc2c(c1)[C@]1(C(=O)N2)[C@H](C(=O)NC[C@H](O)c2ccccc2)[C@H]2C(=O)O[C@H](c3ccccc3)[C@H](c3ccccc3)N2[C@@H]1c1ccc(OCCO)cc1)C(=O)OC Y

Decide: composite z-score of NCCCCCNC(=O)[C@H]1C[C@H]2C(=O)NCC(=O)N2[C@H]1c1cccc(OCCO)c1 >= 0.1? Y
